Value source: ChEMBL document CHEMBL1129396

- SUBJECT_OF_TEST: Dihydrofolate reductase (Rattus norvegicus, UniProt Q920D2)
- TEST_PROTOCOL: The inhibitory concentration of compound against Dihydrofolate reductases on rat liver
pIC50: −log10 of the molar value.
PROPERTY: pIC50

Prompt: Find the measured pIC50 of Cc1[nH]c2nc(N)[nH]c(=O)c2c1Sc1ccc(Cl)c(Cl)c1 and report it.
Completion: < 4.70

Prompt: Find the measured pIC50 of Cc1[nH]c2nc(N)[nH]c(=O)c2c1Sc1ccc([N+](=O)[O-])cc1 and report it.
Completion: 2.13

Prompt: Find the measured pIC50 of COc1ccc(Sc2c(C)[nH]c3nc(N)[nH]c(=O)c23)cc1OC and report it.
Completion: < 4.68

====

- SUBJECT_OF_TEST: Bifunctional dihydrofolate reductase-thymidylate synthase (Toxoplasma gondii, UniProt Q07422)
- Sequence (Q07422 whole entry): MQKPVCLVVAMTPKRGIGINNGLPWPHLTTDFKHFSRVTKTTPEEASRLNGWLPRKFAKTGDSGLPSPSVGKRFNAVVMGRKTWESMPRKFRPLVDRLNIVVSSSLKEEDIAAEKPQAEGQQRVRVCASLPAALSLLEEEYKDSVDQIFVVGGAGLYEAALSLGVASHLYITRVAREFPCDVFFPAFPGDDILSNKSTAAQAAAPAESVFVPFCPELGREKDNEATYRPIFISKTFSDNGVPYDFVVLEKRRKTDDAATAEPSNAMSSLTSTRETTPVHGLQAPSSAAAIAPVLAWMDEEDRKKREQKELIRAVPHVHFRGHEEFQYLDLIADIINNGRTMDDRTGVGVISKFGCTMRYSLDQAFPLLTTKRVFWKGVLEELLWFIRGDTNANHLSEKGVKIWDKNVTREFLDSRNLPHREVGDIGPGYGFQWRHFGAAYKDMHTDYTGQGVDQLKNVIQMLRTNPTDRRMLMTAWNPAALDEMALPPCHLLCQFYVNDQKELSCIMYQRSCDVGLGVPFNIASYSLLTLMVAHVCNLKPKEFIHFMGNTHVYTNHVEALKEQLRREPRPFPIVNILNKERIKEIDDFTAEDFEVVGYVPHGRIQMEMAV
- TEST_PROTOCOL: The inhibitory concentration of compound against Dihydrofolate reductases on Toxoplasma gondii
PROPERTY: pIC50
Quick note: pIC50 means taking -log10 of the concentration in moles per liter.

Prompt: Find the measured pIC50 of Cc1[nH]c2nc(N)nc(O)c2c1Sc1ccc(Cl)cc1 and report it.
Completion: 5.51

Prompt: Find the measured pIC50 of COc1ccc(Sc2c(C)[nH]c3nc(N)[nH]c(=O)c23)cc1OC and report it.
Completion: 4.70

Prompt: Find the measured pIC50 of Cc1[nH]c2nc(N)[nH]c(=O)c2c1Sc1ccc([N+](=O)[O-])cc1 and report it.
Completion: 3.61

Prompt: Find the measured pIC50 of Cc1[nH]c2nc(N)[nH]c(=O)c2c1Sc1ccc(Cl)c(Cl)c1 and report it.
Completion: 4.93

====

PROPERTY: pIC50
Quick note: pIC50 means taking -log10 of the concentration in moles per liter.

Prompt: // fetch pIC50 for Cc1[nH]c2nc(N)nc(O)c2c1Sc1ccccc1 ; system: UniProt:P04818
Sequence (P04818 whole entry): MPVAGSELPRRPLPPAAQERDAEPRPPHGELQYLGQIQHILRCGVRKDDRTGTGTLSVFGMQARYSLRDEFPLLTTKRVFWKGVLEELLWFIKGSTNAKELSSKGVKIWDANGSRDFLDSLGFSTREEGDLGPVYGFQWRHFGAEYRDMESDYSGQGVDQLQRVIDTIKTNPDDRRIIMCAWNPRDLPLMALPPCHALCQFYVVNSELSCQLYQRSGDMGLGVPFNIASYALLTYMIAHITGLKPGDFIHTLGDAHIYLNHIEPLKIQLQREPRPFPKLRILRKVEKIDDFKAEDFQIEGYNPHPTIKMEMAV
Completion: 4.52

====

- SUBJECT_OF_TEST: Thymidylate synthase (Escherichia coli, UniProt C3SWJ7)
- Sequence (C3SWJ7 whole entry): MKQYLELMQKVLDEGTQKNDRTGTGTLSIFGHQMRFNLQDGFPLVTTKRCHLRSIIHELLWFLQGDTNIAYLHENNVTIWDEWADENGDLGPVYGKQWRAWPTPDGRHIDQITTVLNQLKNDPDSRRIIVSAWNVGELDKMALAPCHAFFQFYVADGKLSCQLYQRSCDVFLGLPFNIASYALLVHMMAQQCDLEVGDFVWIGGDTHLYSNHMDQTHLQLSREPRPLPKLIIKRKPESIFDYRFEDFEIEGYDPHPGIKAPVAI
PROPERTY: IC50

Prompt: Find the measured IC50 of Cc1[nH]c2nc(N)nc(O)c2c1Sc1ccncc1 and report it.
Completion: > 29 µM

====

- SUBJECT_OF_TEST: Dihydrofolate reductase (Rattus norvegicus, UniProt Q920D2)
- Sequence (Q920D2 whole entry): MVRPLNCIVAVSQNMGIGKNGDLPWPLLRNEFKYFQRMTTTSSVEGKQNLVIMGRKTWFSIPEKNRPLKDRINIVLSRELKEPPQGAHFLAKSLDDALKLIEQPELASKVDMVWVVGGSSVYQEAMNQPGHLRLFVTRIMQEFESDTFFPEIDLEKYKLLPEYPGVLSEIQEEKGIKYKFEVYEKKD
- TEST_PROTOCOL: The inhibitory concentration of compound against Dihydrofolate reductases on rat liver (rl)
- Type: tissue-based
PROPERTY: IC50 (µM)
Response body: numeric value in µM, unit text excluded.

Prompt: Find the measured IC50 of Cc1[nH]c2nc(N)nc(O)c2c1Sc1ccc(Cl)cc1 and report it.
Completion: 24.6
